// reported fraction fluorescent probe displaced, Screen per item
Target: UniProt Q00987
Sequence (Q00987 whole entry): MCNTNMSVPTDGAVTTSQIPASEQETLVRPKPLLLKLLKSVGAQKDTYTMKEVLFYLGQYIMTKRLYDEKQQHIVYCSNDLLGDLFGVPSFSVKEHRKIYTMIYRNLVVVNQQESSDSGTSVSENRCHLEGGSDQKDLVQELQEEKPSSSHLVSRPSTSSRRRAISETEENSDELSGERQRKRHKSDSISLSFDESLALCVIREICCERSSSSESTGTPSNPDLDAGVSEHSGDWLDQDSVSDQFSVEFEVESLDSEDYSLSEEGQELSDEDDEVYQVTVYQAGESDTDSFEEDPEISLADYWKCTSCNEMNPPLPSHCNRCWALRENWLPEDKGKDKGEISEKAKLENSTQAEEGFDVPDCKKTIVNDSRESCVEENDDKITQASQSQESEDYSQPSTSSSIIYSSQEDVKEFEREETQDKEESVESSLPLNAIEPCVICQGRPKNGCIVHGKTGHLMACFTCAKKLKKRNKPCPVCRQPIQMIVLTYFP
Assay: MDM2 binding screen: displacement of fluorescent p53 peptide probe FP53 (fluorescence polarization)
Conditions: Acid 14; initial screen; crude macrocycle reactions
Numbered stars: 1 amine (or outer) side, 2 acyl side, 3 side chain; on linkers, the order of the positions; unused ones are H or OH. Bridge positions count the residues as written; N and C are the ends. Square brackets hold non-standard residues; d marks the D form. Peptide text beside a SMILES is read from it. * marks the point of attachment. Pro(4S-NHCO(5-Cl-2-thienyl)) = O=C(N[C@@H]1CN[C@H](C(=O)O)C1)c1ccc(Cl)s1; 2Thenoyl(5-Cl) = O=C(c1ccc(Cl)s1)*; Cysteamide = C(CS[*:3])N[*:1]; Dap = NC[C@H](N)C(=O)O; Mpa = O=C(O)CCS
// response body must contain only the number

Use these answered entries as a reference point.
O=C1CCNC(=O)C2CN(C(=O)c3ccc(Cl)s3)CCN2C(=O)C(Cc2c[nH]c3ccccc23)NC(=O)CCSSCCN1 (centres unmarked) :: 0.26
O=C1CCNC(=O)[C@H](Cc2ccccc2)NC(=O)CCSSCCNC(=O)[C@H](CNC(=O)c2ccc(Cl)s2)N1 :: 0.14
O=C1CCSSCCNC(=O)C(CNC(=O)c2ccc(Cl)s2)NC(=O)c2cccc(c2)CNC(=O)C(Cc2ccccc2)N1 (centres unmarked) :: 0.08

Query: Item O=C1CCSSCCNC(=O)[C@@H]2CCCN2C(=O)[C@@H]2C[C@H](NC(=O)c3ccc(Cl)s3)CN2C(=O)[C@H](Cc2c[nH]c3ccccc23)N1 [X W D5 B1 Acid 14] ([Mpa]W[Pro(4S-NHCO(5-Cl-2-thienyl))]P-Cysteamide; disulfide 1-C) : provide fraction fluorescent probe displaced, Screen
Reply: 0.28

Query: Note down fraction fluorescent probe displaced, Screen recorded for O=C1N[C@@H](Cc2c[nH]c3ccccc23)C(=O)NC2(CCN(C(=O)c3ccc(Cl)s3)CC2)C(=O)NCCSSCCC(=O)N2CCC[C@H]1C2
Reply: 0.08

Query: Please give the documented fraction fluorescent probe displaced, Screen of O=C1CCSSCCNC(=O)[C@H](CNC(=O)c2ccc(Cl)s2)NC(=O)[C@@H]2CCCN2C(=O)[C@H](Cc2c[nH]c3ccccc23)N1 [X W B1 D3 Acid 14] ([Mpa]WP[Dap](2Thenoyl(5-Cl))-Cysteamide; disulfide 1-C)
Reply: 0.14
